biological target: Hemoglobin (Homo sapiens, UniProt P68871+P69905); assay: Hemoglobin stabilization effect in storage solution, hemoglobin only (residual ratio by immunological measurement); conditions: 0.050 mol/L agent added; stored at 37° C. for 20 hours; pH 7.0 HEPES storage solution
Sequence (P69905 2-142 limits assumed): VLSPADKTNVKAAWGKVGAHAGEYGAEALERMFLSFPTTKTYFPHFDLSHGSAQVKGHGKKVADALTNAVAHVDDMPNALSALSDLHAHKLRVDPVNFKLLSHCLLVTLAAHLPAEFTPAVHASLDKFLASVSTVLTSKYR
Sequence (P68871 2-147 limits assumed): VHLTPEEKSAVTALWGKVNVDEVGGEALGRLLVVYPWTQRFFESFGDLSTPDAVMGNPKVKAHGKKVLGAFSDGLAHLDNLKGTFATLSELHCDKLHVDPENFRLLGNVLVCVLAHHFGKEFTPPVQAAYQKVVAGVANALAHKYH
observation-type: Residual ratio, Hemoglobin (%)
Your answer is read as %, so omit the unit and give the number.

Sample records with Residual ratio, Hemoglobin:
O=C(O)CN(CCN(CC(=O)O)CC(=O)O)CC(=O)O : 82.4
O=C(O)CN(CCO)CC(=O)O [HIDA, N-(2-hydroxyethyl) iminodiacetic acid] : 81.6
O=C(O)CNCC(=O)O : 81.0

Continue with the compound presented below.
Data request: Consider the compound O=C([O-])CC(NC(C(=O)[O-])C(O)C(=O)[O-])C(=O)[O-].[Na+].[Na+].[Na+].[Na+] (stereo not shown) and give its measured Residual ratio, Hemoglobin.
Data returned: 84.1

###

molecular target: Hemoglobin (Homo sapiens, UniProt P68871+P69905); test: Hemoglobin stabilization effect in storage solution, hemoglobin only (residual ratio by immunological measurement); conditions: 0.010 mol/L agent added; stored at 37° C. for 20 hours; pH 7.0 HEPES storage solution
observation-type: Residual ratio, Hemoglobin (%)
Your answer is read as %, so omit the unit and give the number.

Sample records with Residual ratio, Hemoglobin:
O=C(O)CN(CCO)CC(=O)O [HIDA, N-(2-hydroxyethyl) iminodiacetic acid] : 79.3
O=C([O-])CC(NC(C(=O)[O-])C(O)C(=O)[O-])C(=O)[O-].[Na+].[Na+].[Na+].[Na+] (stereo not shown) : 84.2
O=C(O)CN(CCN(CC(=O)O)CC(=O)O)CC(=O)O : 79.8

Continue with the compound presented below.
Data request: Consider the compound O=C(O)CNCC(=O)O and give its measured Residual ratio, Hemoglobin.
Data returned: 80.9

###

target: Hemoglobin (Homo sapiens, UniProt P68871+P69905); assay: Hemoglobin stabilization effect in storage solution, hemoglobin only (residual ratio by immunological measurement); conditions: 0.001 mol/L agent added; stored at 37° C. for 20 hours; pH 7.0 HEPES storage solution
Reported Residual ratio, Hemoglobin by item:
Your answer is read as %, so omit the unit and give the number.

O=C(O)CN(CCN(CC(=O)O)CC(=O)O)CC(=O)O : 79.5
O=C(O)CNCC(=O)O : 82.1
O=C([O-])CC(NC(C(=O)[O-])C(O)C(=O)[O-])C(=O)[O-].[Na+].[Na+].[Na+].[Na+] (stereo not shown) : 82.8

Data request: Consider the compound O=C(O)CN(CCO)CC(=O)O [HIDA, N-(2-hydroxyethyl) iminodiacetic acid] and give its measured Residual ratio, Hemoglobin.
Data returned: 80.3

###

target: Hemoglobin + feces sample (Homo sapiens, UniProt P68871+P69905); assay: Hemoglobin stabilization effect in storage solution, hemoglobin coexisting with feces sample (residual ratio by immunological measurement); conditions: 0.001 mol/L agent added; stored at 37° C. for 20 hours; pH 7.0 HEPES storage solution
observation-type: Residual ratio, Hemoglobin + feces sample
The reply should read as a number followed by its unit.

Data request: Consider the compound O=C([O-])CC(NC(C(=O)[O-])C(O)C(=O)[O-])C(=O)[O-].[Na+].[Na+].[Na+].[Na+] (stereo not shown) [HIDS] and give its measured Residual ratio, Hemoglobin + feces sample.
Data returned: 28.8%

Data request: // next record O=C(O)CNCC(=O)O [IDA, iminodiacetic acid]
Data returned: 28.0%

Data request: // next record O=C(O)CN(CCO)CC(=O)O [HIDA, N-(2-hydroxyethyl) iminodiacetic acid]
Data returned: 26.1%

Data request: // next record O=C(O)CN(CCN(CC(=O)O)CC(=O)O)CC(=O)O [EDTA, ethylenediamine-N,N,N′,N′-4 acetic acid]
Data returned: 34.3%

###

Reported Residual ratio, Hemoglobin + feces sample by item:
target: Hemoglobin + feces sample (Homo sapiens, UniProt P68871+P69905); test: Hemoglobin stabilization effect in storage solution, hemoglobin coexisting with feces sample (residual ratio by immunological measurement); details: 0.050 mol/L agent added; stored at 37° C. for 20 hours; pH 7.0 HEPES storage solution
Your answer is read as %, so omit the unit and give the number.

Sample records with Residual ratio, Hemoglobin + feces sample:
O=C([O-])CC(NC(C(=O)[O-])C(O)C(=O)[O-])C(=O)[O-].[Na+].[Na+].[Na+].[Na+] (stereo not shown) [HIDS] : 50.8
O=C(O)CN(CCN(CC(=O)O)CC(=O)O)CC(=O)O [EDTA, ethylenediamine-N,N,N′,N′-4 acetic acid] : 37.1
O=C(O)CN(CCO)CC(=O)O [HIDA, N-(2-hydroxyethyl) iminodiacetic acid] : 27.3

Data request: Query Residual ratio, Hemoglobin + feces sample on Hemoglobin + feces sample (Homo sapiens, UniProt P68871+P69905) for O=C(O)CNCC(=O)O [IDA, iminodiacetic acid]
Data returned: 26.3
